endpoint.label: melting point

1) O=S(=O)(Cl)c1ccc(-c2ccc(F)cc2)cc1; 82 to 84 °C
2) c1ccc(C(OC[C@H]2CO2)(c2ccccc2)c2ccccc2)cc1; 98 to 101 °C
3) COc1ccc(C(=O)CC#N)cc1; 129 to 132 °C
4) CCCCCCCCCCCCCCCCCCOCCOCCOCCOCCOCCOCCOCCOCCOCCOCCOCCOCCOCCOCCOCCOCCOCCOCCOCCOCCO; 44 to 46 °C
5) Cc1ccc2occ(C=O)c(=O)c2c1; 169 to 174 °C
6) O=C1CC2C(Br)CC1C2C(=O)O (stereo not given); 178 to 182 °C
7) OC1(Cc2ccccc2)CCNCC1; 80 to 85 °C
8) COc1ccc(Cc2c(N)n[nH]c2N)cc1; 152 to 154 °C
9) CCOC(=O)c1c(C)oc(N)c1C(=O)OCC; 84 to 85 °C
10) CCOC(=O)Cn1cnc(Cl)c1Cl; 65 to 67 °C
11) Cn1nc(N)c2c(=O)c(C(=O)O)c[nH]c21; 223 to 225 °C
12) CSc1sc(C(=O)O)c(-c2cccc(C(F)(F)F)c2)c1C#N; 232 to 234 °C
13) O=C(O)c1ccc(Cn2cnc3ccccc32)cc1; 260 to 262 °C
14) Cc1onc(-c2c(Cl)cccc2Cl)c1C(=O)NN; 150 to 152 °C
15) O=[N+]([O-])c1cc([N+](=O)[O-])c(C(/C(=N/Nc2ccccc2)c2ccccc2)c2ccccc2)cc1Cl (stereo not given); 195 to 196 °C
16) COC(=O)c1sccc1Br; 50 to 51 °C
17) Oc1ccc(Sc2ccc(O)cc2O)c(O)c1; 173 to 177 °C
18) O=C(Cl)c1csc(-c2cccc(Cl)c2)n1; 85 to 87 °C
19) Fc1ccc(-c2cc3ccccc3[nH]2)cc1; 190 to 192 °C
20) Cc1ccc(I)c([N+](=O)[O-])c1; 52 to 54 °C

* * *

melting point of 100 °C or higher: true (1). Under 100 °C: false (0).

1) OCN(CO)c1nc(N(CO)CO)nc(N(CO)CO)n1; true (1)
2) CCc1cccc(O)c1; false (0)
3) CCO[P@](=O)(c1ccc(OC)cc1)N1Cc2ccccc2C[C@@H]1C(=O)NO; true (1)
4) Cc1sc(-c2ccncc2)nc1-c1ccccc1; false (0)
5) C=C1C(=O)C23C(OC(C)=O)CC4C(C)(C)CCC(OC(C)=O)C4(C)C2C(OC(C)=O)CC1(OC(C)=O)C3OC(C)=O (stereo not given); true (1)
6) Cc1ccc2cccc(C)c2n1; false (0)
7) Nc1ccc([N+](=O)[O-])cc1O; true (1)
8) NC(=O)C1CO1 (stereo not given); false (0)
9) Cc1ccc2ncccc2c1; false (0)
10) O=C1C=C(Cl)C(=O)C(Cl)=C1; true (1)
11) CN(C)C(=O)COC(=O)c1ccccc1; false (0)
12) Cc1nn(-c2ccccc2)nc1C(=O)NO; true (1)
13) COC(=O)C=Cc1ccc(C=CC(=O)OC)c(N)c1; true (1)
14) Cc1cc(Cl)cc(Cl)c1Cl; false (0)
15) CC(C)CCCCCCCCCCCO; false (0)
16) CCOC(=O)C(Br)C(=O)OCC; false (0)
17) N#Cc1cc2ccccc2c2ccccc12; true (1)
18) CCCS(=O)CCC; false (0)
19) CCC(C)[C@@H]1NC(=O)OC1=O (stereo not given in full); false (0)
20) CC12C=CC(=O)C=C1CCC1C2CCC2(C)C(O)CCC12 (stereo not given); true (1)
21) CC(C)(C)c1ccc(CCO)cc1; false (0)
22) CC(C(=O)O)C(C)C(=O)O (stereo not given); true (1)
23) O=C(O)C(=Cc1ccc(Cl)cc1)C(=Cc1ccc(Cl)cc1)C(=O)O; true (1)
24) O=Cc1cc(O)cc(O)c1; true (1)

* * *

endpoint.label: melting point

1) CC(C)(C)c1cc(C(C)(C)C)c(N=O)c(C(C)(C)C)c1; 170 to 173 °C
2) CC1=NN(CN2CCCCC2)C(=O)/C1=N\Nc1cccc(O)c1; 204 to 205 °C
3) Nc1nn2c(C(F)(F)F)cc(=O)[nH]c2c1/N=N/c1cccc(F)c1; 305 to 306 °C
4) Nc1ncnc2c1ncn2[C@H]1C=C[C@@H](CO)O1; 189 to 191 °C
5) OC(c1ccccc1)c1c(F)c(F)c(F)c(F)c1F (stereo not given); 54 to 57 °C
6) CC1(C)CC(=O)c2c(C(=O)c3ccc(Cl)cc3)noc2C1; 126 °C
7) CCN(CC)c1ccc2cc(-c3nc4ccccc4s3)c(=O)oc2c1; 205 to 208 °C
8) N#C/C(=N/Nc1ccccc1Cl)c1nc(-c2ccccc2)cs1; 160 °C
9) COC1=C(OC)/C(=C/C2CCC=CC23OC(=O)C(OC)=C3OC)OC1=O (stereo not given); 118 to 120 °C
10) NC1=C(Cl)C(=O)c2ccccc2C1=O; 201 °C

* * *

Each entry below carries its reported melting point.
endpoint.label: melting point

1. Nc1ccc(O)cc1C(=O)O; 233 to 234 °C
2. ClC(Cl)c1ccc(C(Cl)Cl)cc1; 92 to 93 °C
3. Nc1ccc(Cl)cc1C(=O)c1cccc(O)c1; 190 to 192 °C
4. CCOC(=O)C1=C(N)CCC1; 57 to 60 °C
5. N#CCc1ccc(OS(=O)(=O)c2cc(Cl)cc(Cl)c2)cc1; 81 to 83 °C
6. NS(=O)(=O)c1cccc(Br)c1; 155 to 158 °C
7. N#CC(=CNc1ccccn1)C(=O)c1ccccc1; 153 to 154 °C
8. C=C1N(C(C)=O)c2ccccc2C1(C)C(=O)OC (centres undefined); 59 to 61 °C
9. ON=C1CCCc2nnc3c(c21)CCCC3; 269 to 271 °C

* * *

Each entry below carries its reported melting point.
endpoint.label: melting point

1. Brc1ccc2c(c1)OCCOCCOCCOCCOCCO2; 79 to 83 °C
2. CC(=O)OCC1OC(n2cnc3c(N)ncnc32)C(OC(C)=O)C1OC(C)=O (centres undefined); 174 to 175 °C
3. N#Cc1ccc(-n2ccnc2)cc1; 151 to 153 °C
4. C[C@@]12C=CC(=O)N1[C@@H](c1ccccc1)CO2; 88 to 92 °C

* * *

melting point of 200 °C or higher: class 1. Under 200 °C: class 0.

1. COc1ccc(C(=O)O)cc1Br; class 1
2. CC(C=CC=C(C)C=CC1=C(C)C(=O)C(O)CC1(C)C)=CC=CC=C(C)C=CC=C(C)C=CC1=C(C)C(=O)C(O)CC1(C)C (stereo not given); class 0
3. Nc1cc(-c2ccco2)[nH]n1; class 0
4. Cc1oc(S(=O)(=O)N(C)C)cc1C(=O)O; class 0
5. O=C(O)c1cc2sccc2s1; class 1
6. CC(C)(C)OOC(C)(C)C; class 0
7. CN(C)c1ccc(C=C2C(=O)NC(=O)NC2=O)cc1; class 1
8. CC12CCC(O)CC1CCC1C2CCC2(C)C(C3=CC(=O)OC3)C(O)CC12O (stereo not given); class 1

* * *

Each entry below carries its reported melting point.
endpoint.label: melting point

1. OCc1ccc2nsnc2c1; 58 to 63 °C
2. CSC(SC)=C(C#N)C(=O)c1ccc(Cl)cc1; 82 to 84 °C
3. COC12C(COC(N)=O)C3=C(C(=O)C(C)=C(Nc4cnccc4N)C3=O)N1CC1NC12 (stereo not given); 159 °C
4. CC1(C)C(Br)=C(Br)C(=O)C1Br (stereo not given); 87 °C
5. O=C(O)C(F)(F)C(F)(F)C(F)(F)C(F)(F)C(F)(F)F; 10 °C
6. O=Cc1ccc(-c2ccc(Br)cc2)o1; 150 to 155 °C
7. c1ccc(-c2sc(-c3ccccc3)c3ccccc23)cc1; 114 to 119 °C
8. CC1(C)C(C=CC(=O)OC(C(F)(F)F)C(F)(F)F)C1C(=O)OC(C#N)c1cccc(Oc2ccccc2)c1 (stereo not given); 81.5 °C
9. Cc1cc(Cl)ccc1OCCCC(=O)O; 100 °C
10. O=C(CBr)c1ccc(-c2ccccc2)s1; 115 to 117 °C
11. c1cc2c(c(NC3=NCCN3)c1)CCCC2; 142 °C
12. CC(=Cc1ccccc1)C(=O)Cl; 45 to 46 °C
13. CCOC(=O)c1cc(-c2ccco2)nn1C; 57 to 58 °C
14. COc1ccc(C)cc1O; 37 to 39 °C
15. N#CCCn1ccnc1-c1ccccc1; 99.5 to 102 °C
16. O=C(Cl)c1ccc(Oc2ccccc2)nc1; 80 to 82 °C
17. CC1=NN(c2ccccc2)C(=O)C1C(Br)C1(Br)C(=O)N(c2ccccc2)N=C1C (stereo not given); 307 to 308 °C
18. Cn1c(=O)c(C(N)=NO)cn(-c2ccccc2)c1=O; 189 to 191 °C
19. CN(C)C=C[N+](=O)[O-]; 103 to 105 °C
20. Cn1cc(-c2ccccc2)c(=O)c(-c2cccc(C(F)(F)F)c2)c1; 154 °C
